Values from the supplement of paper PMC10307832

# Test system: SK-MES-1
# Protocol Notes: relative viability (nuclei count vs DMSO), 5 days (fraction); higher = more cells survive
# Condition Label: first compound 0.4 µM
The following compounds are listed with their measured relative viability values.
Readout Name: relative viability

- O=C(O)c1ccc(-c2c[nH]c3ncc(-c4ccccc4)cc23)cc1C1CCCC1 + CS(=O)(=O)CCNCc1ccc(-c2ccc3ncnc(Nc4ccc(OCc5cccc(F)c5)c(Cl)c4)c3c2)o1 [Lapatinib] (partner 2 µM): 0.464
- O=C(O)c1ccc(-c2c[nH]c3ncc(-c4ccccc4)cc23)cc1C1CCCC1 + Cc1nc(Nc2ncc(C(=O)Nc3c(C)cccc3Cl)s2)cc(N2CCN(CCO)CC2)n1 [Dasatinib] (partner 0.075 µM): 0.387
- O=C(O)c1ccc(-c2c[nH]c3ncc(-c4ccccc4)cc23)cc1C1CCCC1 + Nc1nc2[nH]cc(CCc3ccc(C(=O)N[C@@H](CCC(=O)O)C(=O)O)cc3)c2c(=O)[nH]1 [Pemetrexed] (partner 0.2 µM): 0.941

* * *

# Tested on: NCI-H2023
# Protocol Notes: relative viability (nuclei count vs DMSO), 5 days (fraction); higher = more cells survive
# Condition Label: first compound 0.01581 µM
// assign Y if relative viability falls strictly below 0.7, else N (ties count as N)

- CC1(C)CCC(c2ccc(Cl)cc2)=C(CN2CCN(c3ccc(C(=O)NS(=O)(=O)c4ccc(N[C@H](CCN5CCOCC5)CSc5ccccc5)c(S(=O)(=O)C(F)(F)F)c4)cc3)CC2)C1 [Navitoclax] + C[C@@H](Oc1cc(-c2cnn(C3CCNCC3)c2)cnc1N)c1c(Cl)ccc(F)c1Cl [Crizotinib] (partner 1 µM): Y
- CC1(C)CCC(c2ccc(Cl)cc2)=C(CN2CCN(c3ccc(C(=O)NS(=O)(=O)c4ccc(N[C@H](CCN5CCOCC5)CSc5ccccc5)c(S(=O)(=O)C(F)(F)F)c4)cc3)CC2)C1 [Navitoclax] + CCNC(=O)c1noc(-c2cc(C(C)C)c(O)cc2O)c1-c1ccc(CN2CCOCC2)cc1 [Luminespib] (partner 0.01 µM): N
- CC1(C)CCC(c2ccc(Cl)cc2)=C(CN2CCN(c3ccc(C(=O)NS(=O)(=O)c4ccc(N[C@H](CCN5CCOCC5)CSc5ccccc5)c(S(=O)(=O)C(F)(F)F)c4)cc3)CC2)C1 [Navitoclax] + CC(=O)c1c(C)c2cnc(Nc3ccc(N4CCNCC4)cn3)nc2n(C2CCCC2)c1=O [Palbociclib] (partner 0.5 µM): Y
- CC1(C)CCC(c2ccc(Cl)cc2)=C(CN2CCN(c3ccc(C(=O)NS(=O)(=O)c4ccc(N[C@H](CCN5CCOCC5)CSc5ccccc5)c(S(=O)(=O)C(F)(F)F)c4)cc3)CC2)C1 [Navitoclax] + COc1cc2c(Oc3ccc(NC(=O)C4(C(=O)Nc5ccc(F)cc5)CC4)cc3F)ccnc2cc1OCCCN1CCOCC1 [Foretinib] (partner 0.25 µM): N

* * *

The following compounds are shown together with reported relative viability values.
# System: NCI-H441
# Protocol Notes: relative viability (nuclei count vs DMSO), 5 days (fraction); higher = more cells survive
# Condition Label: first compound 0.4 µM
Readout Name: relative viability

- O=C(O)c1ccc(-c2c[nH]c3ncc(-c4ccccc4)cc23)cc1C1CCCC1 + CC(=O)Nc1cccc(-n2c(=O)n(C3CC3)c(=O)c3c(Nc4ccc(I)cc4F)n(C)c(=O)c(C)c32)c1 [Trametinib] (partner 0.02 µM): 0.393
- O=C(O)c1ccc(-c2c[nH]c3ncc(-c4ccccc4)cc23)cc1C1CCCC1 + CC1(C)CCC(c2ccc(Cl)cc2)=C(CN2CCN(c3ccc(C(=O)NS(=O)(=O)c4ccc(N[C@H](CCN5CCOCC5)CSc5ccccc5)c(S(=O)(=O)C(F)(F)F)c4)cc3)CC2)C1 [Navitoclax] (partner 0.5 µM): 0.365
- O=C(O)c1ccc(-c2c[nH]c3ncc(-c4ccccc4)cc23)cc1C1CCCC1 + Cc1nc(NC(=O)N2CCC[C@H]2C(N)=O)sc1-c1ccnc(C(C)(C)C(F)(F)F)c1 [Alpelisib] (partner 2 µM): 0.759
- O=C(O)c1ccc(-c2c[nH]c3ncc(-c4ccccc4)cc23)cc1C1CCCC1 + COc1cc2c(Oc3ccc(NC(=O)C4(C(=O)Nc5ccc(F)cc5)CC4)cc3F)ccnc2cc1OCCCN1CCOCC1 [Foretinib] (partner 0.25 µM): 0.897
- O=C(O)c1ccc(-c2c[nH]c3ncc(-c4ccccc4)cc23)cc1C1CCCC1 + CS(=O)(=O)N1CCN(Cc2cc3nc(-c4cccc5[nH]ncc45)nc(N4CCOCC4)c3s2)CC1 [Pictilisib] (partner 1 µM): 0.469

* * *

# System: COR-L23
# Protocol Notes: relative viability (nuclei count vs DMSO), 5 days (fraction); higher = more cells survive
# Condition Label: first compound 0.3162 µM
Entries and their measured relative viability follow.
Readout Name: relative viability

- NC(=O)Nc1cc(-c2cccc(F)c2)sc1C(=O)N[C@H]1CCCNC1 [AZD7762] + C[C@]1(O)C[C@@H](c2nc(-c3ccc4ccc(-c5ccccc5)nc4c3)c3c(N)nccn32)C1 [Linsitinib] (partner 1 µM): 0.799
- NC(=O)Nc1cc(-c2cccc(F)c2)sc1C(=O)N[C@H]1CCCNC1 [AZD7762] + Cc1nc(Nc2ncc(C(=O)Nc3c(C)cccc3Cl)s2)cc(N2CCN(CCO)CC2)n1 [Dasatinib] (partner 0.075 µM): 0.313
- NC(=O)Nc1cc(-c2cccc(F)c2)sc1C(=O)N[C@H]1CCCNC1 [AZD7762] + Cc1nc(NC(=O)N2CCC[C@H]2C(N)=O)sc1-c1ccnc(C(C)(C)C(F)(F)F)c1 [Alpelisib] (partner 2 µM): 0.621
- NC(=O)Nc1cc(-c2cccc(F)c2)sc1C(=O)N[C@H]1CCCNC1 [AZD7762] + CS(=O)(=O)N1CCN(Cc2cc3nc(-c4cccc5[nH]ncc45)nc(N4CCOCC4)c3s2)CC1 [Pictilisib] (partner 1 µM): 0.68

* * *

# Test system: NCI-H3122
# Protocol Notes: relative viability (nuclei count vs DMSO), 5 days (fraction); higher = more cells survive
# Condition Label: first compound 0.005 µM
Readout Name: relative viability

• CC1(C)CCC(c2ccc(Cl)cc2)=C(CN2CCN(c3ccc(C(=O)NS(=O)(=O)c4ccc(N[C@H](CCN5CCOCC5)CSc5ccccc5)c(S(=O)(=O)C(F)(F)F)c4)cc3)CC2)C1 [Navitoclax] + CS(=O)(=O)N1CCN(Cc2cc3nc(-c4cccc5[nH]ncc45)nc(N4CCOCC4)c3s2)CC1 [Pictilisib] (partner 1 µM) = 0.592

* * *

# Tested on: H3255
# Protocol Notes: relative viability (nuclei count vs DMSO), 5 days (fraction); higher = more cells survive
# Condition Label: first compound 1 µM
Readout Name: relative viability

• NC(=O)Nc1cc(-c2cccc(F)c2)sc1C(=O)N[C@H]1CCCNC1 [AZD7762] + CC(C)C[C@H](NC(=O)[C@H](Cc1ccccc1)NC(=O)c1cnccn1)B(O)O [Bortezomib] (partner 0.002 µM) = 0.59
• NC(=O)Nc1cc(-c2cccc(F)c2)sc1C(=O)N[C@H]1CCCNC1 [AZD7762] + COc1cccc2cc(-c3nc([C@H]4CC[C@H](C(=O)O)CC4)n4ncnc(N)c34)[nH]c12 [OSI-027] (partner 0.5 µM) = 0.607
• NC(=O)Nc1cc(-c2cccc(F)c2)sc1C(=O)N[C@H]1CCCNC1 [AZD7762] + COc1cc2c(Oc3ccc(NC(=O)C4(C(=O)Nc5ccc(F)cc5)CC4)cc3F)ccnc2cc1OCCCN1CCOCC1 [Foretinib] (partner 0.25 µM) = 0.859
• NC(=O)Nc1cc(-c2cccc(F)c2)sc1C(=O)N[C@H]1CCCNC1 [AZD7762] + CC(=O)c1c(C)c2cnc(Nc3ccc(N4CCNCC4)cn3)nc2n(C2CCCC2)c1=O [Palbociclib] (partner 0.5 µM) = 0.35
• NC(=O)Nc1cc(-c2cccc(F)c2)sc1C(=O)N[C@H]1CCCNC1 [AZD7762] + CC(=O)Nc1cccc(-n2c(=O)n(C3CC3)c(=O)c3c(Nc4ccc(I)cc4F)n(C)c(=O)c(C)c32)c1 [Trametinib] (partner 0.02 µM) = 0.682

* * *

# System: NCI-H2009
# Protocol Notes: relative viability (nuclei count vs DMSO), 5 days (fraction); higher = more cells survive
# Condition Label: first compound 8 µM
relative viability under 0.7 gets label 1, anything at or over 0.7 gets label 0.

* C=C1C(=O)O[C@@H](CCCCCCCC)[C@@H]1C(=O)O [C-75] + Nc1nc2[nH]cc(CCc3ccc(C(=O)N[C@@H](CCC(=O)O)C(=O)O)cc3)c2c(=O)[nH]1 [Pemetrexed] (partner 0.2 µM) | label 0
* C=C1C(=O)O[C@@H](CCCCCCCC)[C@@H]1C(=O)O [C-75] + O=C(c1cc(Cc2n[nH]c(=O)c3ccccc23)ccc1F)N1CCN(C(=O)C2CC2)CC1 [Olaparib] (partner 8 µM) | label 1
* C=C1C(=O)O[C@@H](CCCCCCCC)[C@@H]1C(=O)O [C-75] + Cc1nc(NC(=O)N2CCC[C@H]2C(N)=O)sc1-c1ccnc(C(C)(C)C(F)(F)F)c1 [Alpelisib] (partner 2 µM) | label 0
